The origin of these recorded values is patent US20080200454A1.

molecular target: Recombinant human cathepsin S (CatS) (Homo sapiens, UniProt P25774); assay: Recombinant human cathepsin S (CatS) inhibition assay, fluorogenic substrate Z-Valine-Valine-Arginine-AMC
Sequence (P25774 115-331): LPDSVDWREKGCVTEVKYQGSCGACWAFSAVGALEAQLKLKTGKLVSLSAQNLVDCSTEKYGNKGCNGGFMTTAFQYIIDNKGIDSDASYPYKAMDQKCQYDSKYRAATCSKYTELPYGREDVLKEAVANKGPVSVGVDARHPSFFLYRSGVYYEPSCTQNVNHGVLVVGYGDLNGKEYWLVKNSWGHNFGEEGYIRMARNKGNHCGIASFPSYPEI
Binning rule for recorded IC50: L (below 80 nM), M (80 nM to below 600 nM), H (600 nM or more)

CCNCc1cc(C#Cc2cc(-c3nn(CCCN4CCCCC4)c4c3CN(C(N)=O)CC4)ccc2Cl)ccc1Cl: L
NC(=O)N1CCc2c(c(-c3ccc(Cl)c(C#Cc4cccc(CNCc5ccccc5Cl)c4)c3)nn2CCCN2CCSCC2)C1: M
CS(=O)(=O)N1CCc2c(c(-c3ccc(Cl)c(CCc4ccc(Cl)cc4)c3)nn2C[C@@H](O)CN2CCC(C3CCNCC3)CC2)C1: L
NC(=O)C(=O)N1CCc2c(c(-c3ccc(Cl)c(C#Cc4ccc(Cl)c(C(=O)NC[C@@H]5CCCN5)c4)c3)nn2CCCN2CCSCC2)C1: L
CN(C)c1ccc2c(n1)n(C1CCN(CC(O)Cn3nc(-c4ccc(C(F)(F)F)c(C#Cc5ccc(Cl)cc5)c4)c4c3CCN(S(C)(=O)=O)C4)CC1)c(=O)n2C (centres unmarked): L

Asked: State the class of the compound shown: CS(=O)(=O)N1CCc2c(c(-c3ccc(Cl)c(CCCNS(=O)(=O)c4ccccc4)c3)nn2CCCN2CCC(N3CCCC3=O)CC2)C1
Given back: H

Asked: Which IC50 band matches CS(=O)(=O)N1CCc2c(c(-c3ccc(Cl)c(C#Cc4ccc(CNCCc5ccccc5)cc4)c3)nn2CCCN2CCOCC2)C1 ?
Given back: M

Asked: Which IC50 category applies to NC(=O)C(=O)N1CCc2c(c(-c3ccc(Cl)c(C#Cc4ccc(CNCc5ccc(Cl)cc5)cc4)c3)nn2C[C@@H](O)CN2CCOCC2)C1 here?
Given back: L

---

biological target: Recombinant human cathepsin S (CatS) (Homo sapiens, UniProt P25774); assay: Recombinant human cathepsin S (CatS) inhibition assay, fluorogenic substrate Z-Valine-Valine-Arginine-AMC;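 note: Baculovirus-expressed CatS in pH 5.0 sodium acetate buffer with DTT and NaCl, fluorescence read each minute over 20 min, inhibition derived from rate slope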
pIC50: −log10 of the molar value.
Threshold check on pIC50: at or above 7 gives YES, strictly below gives NO.

Solved cases (5 shown):
Cc1ccsc1CNCc1ccc(C#Cc2cc(-c3nn(CCCN4CCOC[C@@H]4C)c4c3CN(S(C)(=O)=O)CC4)ccc2Cl)cc1 [Example 431]: NO
COc1ccc(CCc2cc(-c3nn(CCCN4CCOCC4)c4c3CN(S(C)(=O)=O)CC4)ccc2Cl)cc1 [Example 58]: NO
CS(=O)(=O)N1CCc2c(c(-c3ccc(Cl)c(CCCNS(=O)(=O)c4ccccc4)c3)nn2CCCN2CCOCC2)C1 [Example 65]: NO
C[C@H]1COCCN1CCCn1nc(-c2ccc(Cl)c(CCc3ccc(CNCc4ccc(Cl)cc4)cc3)c2)c2c1CCN(C(=O)C(N)=O)C2 [Example 243]: YES
CS(=O)(=O)N1CCc2c(c(-c3ccc(C(F)(F)F)c(CCCNS(=O)(=O)c4ccccc4)c3)nn2CC(O)CN2CCOCC2)C1 (centres unmarked) [Example 306]: NO

Asked: Hello, I need to know if CNCc1ccc(C#Cc2cc(-c3nn(CCCN4CCOCC4)c4c3CN(S(C)(=O)=O)CC4)ccc2Cl)cc1 [Example 315] has measured pIC50 not below 7. Thanks!
Given back: NO

Asked: Reported pIC50 reaches at least 7 for NC(=O)N1CCc2c(c(-c3ccc(Cl)c(C#Cc4ccc(Cl)c(C(=O)NCC5CNCCO5)c4)c3)nn2CCCN2CCSCC2)C1 (centres unmarked) [Example 584] ?
Given back: YES

Asked: Dear colleague, could you confirm whether CC1CCCN(CCCc2cc(-c3nn(CCCN4CCC(N5CCCC5=O)CC4)c4c3CN(S(C)(=O)=O)CC4)ccc2Cl)C1 (centres unmarked) [Example 103] has pIC50 at or above 7?
Given back: NO

Asked: Dear colleague, could you confirm whether COC(=O)c1ccccc1S(=O)(=O)NCCCc1cc(-c2nn(CCCN3CCC(N4CCCC4=O)CC3)c3c2CN(S(C)(=O)=O)CC3)ccc1Cl [Example 309] has pIC50 at or above 7?
Given back: NO

Asked: Hi, just wondering whether CS(=O)(=O)N1CCc2c(c(-c3ccc(Cl)c(C#Cc4ccc5c(c4)CN(C4CC4)CC5)c3)nn2CCCN2CCN(c3ccccc3)CC2)C1 [Example 280] shows pIC50 of 7 or higher.
Given back: YES

Asked: Is pIC50 for CS(=O)(=O)N1CCc2c(c(-c3ccc(Cl)c(C#CCNS(=O)(=O)c4ccccc4)c3)nn2CCCN2CCOCC2)C1 [Example 54] at or above 7?
Given back: NO

Asked: Decide: is the reported value of pIC50 for CNC(=O)N1CCc2c(c(-c3ccc(Cl)c(C#Cc4ccc(CNCc5ccc(Cl)cc5)cc4)c3)nn2CCCN2CCOCC2)C1 [Example 155] equal to or greater than 7?
Given back: NO

Asked: Hi, just wondering whether CS(=O)(=O)N1CCc2c(c(-c3ccc(Cl)c(CCCN4CCOCC4)c3)nn2CCCN2CCC(N3CCCC3=O)CC2)C1 [Example 105] shows pIC50 of 7 or higher.
Given back: NO

Asked: I'd appreciate it if you could say whether CS(=O)(=O)N1CCc2c(c(-c3ccc(Cl)c(C#Cc4ccc(CNCc5ccc(Cl)cc5)cc4)c3)nn2CCCN2CCC(C(N)=O)CC2)C1 [Example 350] has pIC50 at least equal to 7.
Given back: YES

Asked: Say whether CC(C)(C)OC(=O)N1CCc2ccc(C#Cc3cc(-c4nn(CC(O)CN5CCCCC5)c5c4CN(S(C)(=O)=O)CC5)ccc3Cl)cc2C1 (centres unmarked) [Example 371] shows pIC50 of 7 or more.
Given back: NO

Asked: Say whether COC(=O)C1Cc2cc(C#Cc3cc(-c4nn(CCCN5CCOCC5)c5c4CN(S(C)(=O)=O)CC5)ccc3Cl)ccc2CN1C(=O)OC(C)(C)C (centres unmarked) [Example 203] shows pIC50 of 7 or more.
Given back: NO

Asked: Can COC(=O)C1c2ccc(C#Cc3cc(-c4nn(CCCN5CCOCC5)c5c4CN(S(C)(=O)=O)CC5)ccc3Cl)cc2CCN1C(=O)OC(C)(C)C (centres unmarked) [Example 207] be said to have pIC50 at or above 7?
Given back: NO

Asked: Please indicate if the recorded pIC50 for NC(=O)N1CCc2c(c(-c3ccc(Cl)c(C#Cc4ccc(Cl)cc4)c3)nn2C[C@@H](O)CN2CCC(C3CCNCC3)CC2)C1 [Example 238] meets or exceeds 7.
Given back: YES
